Data credit: a melting point compilation (Tetko et al.)

endpoint-label: melting point (°C)

// below: answered molecules
> print(dat)
                                   molecule  endpoint.label  test.result
1                       N#Cc1ccccc1-n1cccc1   melting point           51
2                    CC(=O)N=C1C=CC(=O)C=C1   melting point         74.5
3                     C1CCC(CCCC2CCCCC2)CC1   melting point          -17
4  Cc1ccc(C)c(C=Cc2ccc(-c3ccc(C=Cc4cc(C)ccc4C)cc3)cc2)c1   melting point          198
5                  S=c1oc2ccccc2n1CN1CCCCC1   melting point          255
6             Nc1ccc2c3c(cccc13)-c1ccccc1-2   melting point          116
7                          O=C(O)CP(=O)(O)O   melting point          144
8  CC12CCC(C1(C)C)C(CCC(Br)c1ccccc1)(C1(CCC(Br)c3ccccc3)C(=O)C3(C)CCC1C3(C)C)C2=O (stereo not drawn)   melting point          168

P. C=C1C(=O)C23C4CC5C(C)(C)CCC(OC(C)=O)C5(C)C2C(OC(C)=O)CC1(OC(C)=O)C3OC(C)(C)O4 (stereo not drawn)
Q. COC(=O)c1c2c(c(C)c3c1C(C)C3=O)C(=O)C2 (stereo not drawn)
// query melting point comparison. Which is larger, P or Q ? API: response body contains the label of the selected item.
// result P

a. OC(c1ccccc1)P(c1ccccc1)c1ccccc1 (stereo not drawn)
b. O=C(Nc1ccc([N+](=O)[O-])cc1Br)C1(F)C(F)(F)C(F)(F)C(F)(F)C(F)(F)C1(F)F
c. Clc1ccc(-c2ccc(Br)nc2)cn1
d. c1ccc(CCCCc2ccccc2)cc1
e. Cc1ccccc1S
// query # rank_down: sort by melting point, max first Form entry: labels listed in requested order.
// result c, a, b, d, e
(c: 244 °C, a: 157 °C, b: 102 °C, d: 52.5 °C, e: 15 °C)

I. Nc1cccc(C=CC(=O)c2ccccc2)c1
II. CC(=O)Nc1ccccc1C(F)(F)F
III. O=C(O)Cc1ccc2c(c1)NC(=O)C2
// query Endpoint returns the given molecules ordered by ascending melting point. Thanks in advance for listing the labels in the requested order.
// result II, I, III

* * *

endpoint-label: melting point (°C)

> print(dat)
                                   molecule  test.result
1  C=CC(CO)N1C(=O)c2ccccc2C1=O (stereo not given)         62.2
2                     OCc1ccc(SC(F)(F)F)cc1           52
3  O=C(Nc1ccc(N=Nc2ccc([N+]([O-])=Nc3ccc(NC(=O)c4ccccc4)cc3)cc2)cc1)c1ccccc1          328

a. CN(C)C(=O)C(CCN1CCC(O)(c2ccc(Cl)cc2)CC1)(c1ccccc1)c1ccccc1
b. O=CN(c1ccccc1)c1ccccc1
// query Which of the two items, a and b , has the greater recorded melting point? Let me know the label of the one you choose.
// result a

A. O=C1N=NC(=O)c2cc3c(cc21)CCC3
B. CCOC(=O)C1=C(N)Oc2ccc3ccccc3c2[C@H]1c1ccc(C)cc1
C. CC(=O)c1ccc(C(C)=O)c([N+](=O)[O-])c1
D. NC(CSc1ccccn1)=NO
// query Please produce an ascending ranking of these molecules based on melting point. Returns: the labels listed in the requested order.
// result C, D, B, A

I. Nc1cc(C(=O)O)cc(C(=O)O)c1
II. O=C(O)c1ccccc1P(c1ccccc1)c1ccccc1
III. O=C(O)CSc1ccc(F)cc1
// query Sort entries by melting point from minimum to maximum value. When ranking, write the labels in the order the request describes.
// result III, II, I
(III: 78 °C, II: 178 °C, I: 360 °C)

* * *

endpoint-label: melting point (°C)

Look over these answered cases.
> print(dat)
                                    compound  reading.unit  test.result
 1       N#C/C(=N\Nc1cccc(F)c1)c1nc2ccccc2s1            °C          196
 2                       COC(=O)c1sc(SC)nc1N            °C          104
 3  CC(=O)Nc1cc(N)c(C=Cc2ccccc2)cc1/C=C/c1ccccc1            °C          218
 4  CC=CC1=C(C(=O)O)N2C(=O)C(NC(=O)C(N)c3ccc(O)cc3)C2SC1 (stereo not given)            °C          222
 5  COC1=CC(=O)C2(C)CCC1C2(C)C (stereo not given)            °C           55
 6                          Cn1cnc2ncnc-2c1N            °C          300
 7                   C=CCN(CC=C)C(=O)C(Cl)Cl            °C          5.5
 8               OCC(O)CI (stereo not given)            °C         48.5
 9  COC(=O)C=Cc1ccc(C=CC(=O)OC)c([N+](=O)[O-])c1            °C          166
10          O=C(O)C(O)(c1ccccc1Cl)c1ccccc1Cl            °C          162

1. Fc1ccccc1F
2. O=C(C=Cc1ccccc1O)c1cccc(C(=O)C=Cc2ccccc2O)c1
// query Look at 1 and 2 . Which one has the lower recorded melting point number? Selection: enter the item's label.
// result 1

* * *

endpoint-label: melting point (°C)

a. Nc1ccccc1-c1cc2ccccc2[nH]1
b. Nc1ccc(C(F)(F)F)cn1
// query Hi, I'm comparing a with b and wondering which one has the bigger number for melting point. Any idea? Indicate your choice by writing its label.
// result a
(a: 153 °C, b: 47 °C)

P. O=C(c1ccc(Cl)cc1)c1noc(-c2ccc(Cl)cc2)c1S(=O)(=O)c1ccccc1
Q. CCCCCCCC(=O)CC
R. CC(O)CCc1ccc2c(c1)NC(C)CC2 (configuration not stated)
S. CCNc1nc2c(cc1C(=O)OC)c(=O)oc1ccccc12
// query Which order do these items take when sorted by rising melting point? List them. Answer by listing the labels in the requested order.
// result Q, R, P, S
(Q: 2.5 °C, R: 79 °C, P: 147 °C, S: 210 °C)

* * *

endpoint-label: melting point (°C)

> print(dat)
                                    molecule  endpoint.label  test.result
 1                      CCC1(CC)C(=O)CCNC1=O   melting point          102
 2    COC(=O)C1(S(=O)(=O)c2ccc(Br)cc2)CCCCC1   melting point          112
 3                        FC(F)(F)c1cccnc1Br   melting point           38
 4            COC(=O)C=Cc1cccc(C=CC(=O)OC)c1   melting point          132
 5                 Cc1oc(-c2ccccc2)cc1C(=O)O   melting point          183
 6         CCOC(=O)C(=CN(O)c1ccccc1)c1ccccc1   melting point           75
 7            CCOCCOC(=O)c1ccccc1C(=O)OCCOCC   melting point           34
 8  CN(C)c1ccc(C(/C=C2\C=Cc3ccccc3N2)c2ccccc2)cc1 (stereo not given)   melting point          125
 9                                  CN(C)CCO   melting point          -59
10    Cc1ccc(S(=O)(=O)C2(C(=O)OC(C)C)CC2)cc1   melting point         65.5

A. O=[N+]([O-])c1ccc(Br)cc1C(F)(F)F
B. N#Cc1cccc(F)c1
// query Could you kindly indicate whether A or B has the higher melting point value? Return value: the label identifying the chosen record.
// result A

1. Cc1nc(-c2ccccc2)sc1Br
2. Nc1cc(N)c(/C=C/c2ccccc2)cc1/C=C/c1ccccc1
3. CC(C)CC(C)Br (stereo not given)
// query Order each entry by recorded melting point, climbing from the minimum. Returns: the labels arranged in the requested order.
// result 3, 1, 2
(3: -94 °C, 1: 60 °C, 2: 201 °C)

* * *

endpoint-label: melting point (°C)

For orientation, consider the following solved cases.
> print(dat)
                                   molecule  endpoint.label  test.result
1  O=C(NCc1ccccn1)c1cc([N+](=O)[O-])cc([N+](=O)[O-])c1   melting point          120
2          N[C@@H](CCC(=O)OCc1ccccc1)C(=O)O   melting point          169

A. CC(C)(C)OC(=O)N1CCC[C@H]1CO
B. O=C(O)CCCCl
C. O=C(c1cccs1)c1noc(-c2ccc(Br)cc2)c1S(=O)(=O)c1ccccc1
D. O=C1C=C(O)CC(c2ccccc2)C1 (stereo not drawn)
E. S=C=Nc1ccc(Oc2ccccc2)cc1
// query Reorder the items by melting point, least to greatest. List labels; respect the requested ordering.
// result B, E, A, C, D
